For each of the compounds below, state its pIC50.
Molecular target: cPLA2 (Homo sapiens, UniProt P47712)
Sequence (P47712 1-749): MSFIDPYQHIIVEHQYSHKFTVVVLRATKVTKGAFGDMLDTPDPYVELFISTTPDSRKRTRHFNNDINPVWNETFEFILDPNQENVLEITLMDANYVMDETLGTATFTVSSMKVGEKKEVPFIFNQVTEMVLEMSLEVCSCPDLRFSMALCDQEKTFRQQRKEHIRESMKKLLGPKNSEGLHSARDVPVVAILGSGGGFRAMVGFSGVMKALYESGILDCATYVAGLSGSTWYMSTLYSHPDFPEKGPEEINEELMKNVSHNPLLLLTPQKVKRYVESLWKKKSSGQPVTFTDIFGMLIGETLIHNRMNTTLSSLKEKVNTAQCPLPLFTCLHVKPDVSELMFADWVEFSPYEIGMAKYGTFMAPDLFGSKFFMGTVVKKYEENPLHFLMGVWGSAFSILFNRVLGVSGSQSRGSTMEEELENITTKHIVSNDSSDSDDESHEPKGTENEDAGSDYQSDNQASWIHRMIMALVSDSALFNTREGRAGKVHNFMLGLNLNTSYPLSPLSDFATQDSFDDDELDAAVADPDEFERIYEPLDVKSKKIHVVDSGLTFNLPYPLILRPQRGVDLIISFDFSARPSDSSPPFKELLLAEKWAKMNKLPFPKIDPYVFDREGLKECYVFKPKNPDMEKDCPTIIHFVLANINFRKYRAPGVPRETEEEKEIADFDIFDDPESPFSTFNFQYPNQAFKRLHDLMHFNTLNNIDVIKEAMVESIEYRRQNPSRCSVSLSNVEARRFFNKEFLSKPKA
Give bare numbers, as −log10 of the molar value.

>>> print(df.to_string())
                           structure_string  reading
0  O=C1NC(=O)/C(=C/c2ccc(C(=O)NC[C@@H]3C[C@@H](OCc4ccccc4-c4ccccc4)CN3C(=O)c3ccccc3C(=O)c3ccc(F)cc3)s2)S1     7.31
1  CN(Cc1ccccc1)[C@@H]1C[C@@H](CNC(=O)c2ccc(/C=C3\SC(=S)NC3=O)cc2)N(C(=O)c2ccccc2C(=O)c2ccc(F)cc2)C1     5.85

Shifting focus to the compound that follows.
State its pIC50 for this compound: O=C1NC(=O)/C(=C/c2ccc(C(=O)NC[C@@H]3C[C@@H](OCc4ccccc4-c4ccccc4)CN3C(=O)c3ccccc3C(=O)c3ccccc3)cc2)S1 6.77

----------
System: production of prostaglandin E2 by human fibroblasts
Assay: Inhibition of Production of Prostaglandin E2 in Human Fibroblasts (IL-1 stimulation)
Assay type: cell-based
Conditions: Fibroblast; human fibroblasts under stimulation with IL-1
outcome measure: IC50

In [3]: df
Out[3]:
                           structure_string  reading
0  O=C1NC(=S)S/C1=C\c1ccc(NC(=O)[C@@H]2C[C@@H](SCc3ccccc3-c3ccccc3)CN2C(=O)c2ccccc2C(=O)c2ccc(F)cc2)c(O)c1  6200 nM
1  O=C1NC(=O)/C(=C/c2ccc(C(=O)NC[C@@H]3C[C@@H](Oc4cccc5ccccc45)CN3C(=O)c3ccccc3C(=O)c3ccc(F)cc3)cc2)S1   100 nM

--- query ---
Write down measured IC50 (production of prostaglandin E2 by human fibroblasts) for this compound. O=C1NC(=S)S/C1=C\c1ccc(S(=O)(=O)NC[C@@H]2C[C@@H](OCc3ccccc3-c3ccccc3)CN2C(=O)c2ccccc2C(=O)c2ccc(F)cc2)s1 970 nM
